- system: UniProt P28335
- Sequence (P28335 33-458): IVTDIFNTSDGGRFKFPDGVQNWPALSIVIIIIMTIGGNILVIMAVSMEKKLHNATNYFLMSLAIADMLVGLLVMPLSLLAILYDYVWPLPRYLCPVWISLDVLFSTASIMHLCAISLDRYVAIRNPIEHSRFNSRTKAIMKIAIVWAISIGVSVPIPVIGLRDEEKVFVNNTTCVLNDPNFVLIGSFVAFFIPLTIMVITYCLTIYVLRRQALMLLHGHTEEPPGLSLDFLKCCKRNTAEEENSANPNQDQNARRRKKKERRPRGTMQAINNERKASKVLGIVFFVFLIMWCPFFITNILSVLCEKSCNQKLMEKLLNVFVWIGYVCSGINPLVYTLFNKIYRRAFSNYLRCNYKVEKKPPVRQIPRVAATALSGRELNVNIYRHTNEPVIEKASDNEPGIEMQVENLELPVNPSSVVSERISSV
- test: Human 5-HT2C functional assay in CHO-K1 cells (calcium flux, FLIPR)
- Assay type: cell-based
- Parameters: expressed in transfected cells; host or cells: CHO-K1 cells
- test_context: CHO-K1 cells; percentage relative to the effect of serotonin; read-out: Emax (%), 5-HT2c Agonist Activity
quantity_measured: Emax

Solved cases (6 shown):
| molecule | Emax |
| --- | --- |
| O=C1CC2CNCCN2c2cc(-c3cccc(F)c3)ccc2N1 (stereo not shown) | > 120% |
| C[C@@H](Cc1ccccc1)Oc1ccc2c(c1)N1CCNCC1CC(=O)N2 (stereo partly shown) | > 120% |
| c1ccc(-c2cccc3c2OCC[C@H]2CNCCN32)cc1 | 100% |
| C[C@H](Cc1ccccc1)Oc1ccc2c(c1)N1CCNCC1CC(=O)N2 (stereo partly shown) | > 120% |
| COc1ccccc1-c1ccc2c(c1)N1CCNC[C@@H]1CCO2 | > 120% |
| O=C1CC2CNCCN2c2cc(CCc3ccccc3F)ccc2N1 (stereo not shown) | > 120% |

INPUT: // lookup Emax | system=UniProt P28335 | key= `Oc1ccc(-c2ccc3c(c2)N2CCNC[C@@H]2CCO3)cc1`
OUTPUT: > 120%

INPUT: And O=C1CC2CNCCN2c2cc(-c3cccc(OCc4ccccc4)c3)ccc2N1 (stereo not shown) ?
OUTPUT: > 120%

INPUT: And Cn1cc(-c2ccc3c(c2)N2CCNCC2CC(=O)N3)cn1 (stereo not shown) ?
OUTPUT: > 120%

====

Listed next: entries and their corresponding Emax.
- system: 5HT2B receptors (Homo sapiens, UniProt P41595)
- Construct: expressed in transfected cells; host or cells: CHO-K1 cells
- Sequence (P41595 whole entry): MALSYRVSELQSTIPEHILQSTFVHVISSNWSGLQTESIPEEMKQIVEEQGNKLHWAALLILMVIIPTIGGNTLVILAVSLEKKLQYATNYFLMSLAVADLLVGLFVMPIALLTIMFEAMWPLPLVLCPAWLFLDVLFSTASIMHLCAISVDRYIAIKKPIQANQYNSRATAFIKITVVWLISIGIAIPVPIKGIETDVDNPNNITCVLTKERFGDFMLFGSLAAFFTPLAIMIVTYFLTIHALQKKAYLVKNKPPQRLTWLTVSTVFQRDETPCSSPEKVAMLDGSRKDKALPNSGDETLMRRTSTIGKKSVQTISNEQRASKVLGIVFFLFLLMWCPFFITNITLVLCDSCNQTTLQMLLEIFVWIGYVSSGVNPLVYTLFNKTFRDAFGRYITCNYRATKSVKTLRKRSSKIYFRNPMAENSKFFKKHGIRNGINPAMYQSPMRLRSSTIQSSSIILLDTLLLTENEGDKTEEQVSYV
- test: Human 5-HT2B functional assay in CHO-K1 cells (calcium flux, FLIPR)
- Type: cell-based
- test_context: CHO-K1, read-out: Emax (%), 5-HT2B Agonist Activity
Hi! Could you send only the number? It should be in %, unit omitted.

| smi | Emax / % |
| --- | --- |
| O=C1C[C@H]2CNCCN2c2cc(Cl)ccc2N1 | 110 |
| C[C@@H]1CN2c3ccccc3OCC[C@H]2CN1 | 15 |
| Cc1c(F)ccc2c1OCC[C@H]1CNCCN21 | 15 |
| Clc1ccc2c(c1)N1CCNC[C@@H]1CCO2 | 60 |
| [2H]c1ccc2c(c1)N1CCNC[C@@H]1CCO2 | 15 |

Please find the next compound below.
INPUT: // query Emax value for entry `Fc1ccc2c(c1F)OCC[C@H]1CNCCN21`
OUTPUT: 20
